Test system: DU-145 prostate
Experiment Description: NCI tumour cell line growth inhibition, 48 h
Readout Type: TGI

O=CN1N=C(c2ccc(Nc3ccnc4cc(Cl)ccc34)cc2)CC1c1ccc(Cl)cc1 (stereo not given) = > 100 µM
O=C(Nc1ccc(S(=O)(=O)Nc2ncccn2)cc1)c1c2ccccc2nc2ccccc12 = > 100 µM
COc1nc(C)nc2c1ncn2Cc1ccccc1 = > 100 µM
Oc1ccc(Cn2c(-c3ccc(O)cc3)nc3ccccc32)cc1 = > 100 µM

(Q) What does the data say about its TGI? Entry: COC(=O)[C@@H]1[C@H](O)CC[C@H]2[C@@]1(C)CC[C@@H](C)[C@]2(COC(C)=O)CC(=O)c1ccoc1
(A) > 50 µM

----------
System: UACC-257 melanoma
Experiment Description: NCI tumour cell line growth inhibition, 48 h
Where a SMILES comes first, the peptide text is derived from it.
# binarize TGI: threshold 30 µM inclusive, high side 1, low side 0

NS(=O)(=O)c1ccc(NC(=O)c2cccc3c(Nc4ccc(S(N)(=O)=O)cc4)c4ccccc4nc23)cc1 = 1
OC1c2ccccc2C2C(O)c3ccccc3C12 (configuration not stated) = 1
O=C(O)c1cc(=O)c2cc(C(=O)c3cccs3)c(Cl)c(Cl)c2o1 = 1
CC(=O)NC1C(OCc2ccccc2)OC(CO)C(O)C1OCC(=O)N1CCCC1C(=O)NC(CCC(=O)NCCCCCNc1c2ccccc2nc2cccc([N+](=O)[O-])c12)C(N)=O (configuration not stated) = 0
NCCC1([N+](=O)[O-])CCNCC1 = 1
C#CC(O)Cc1ccc(OC)c2occc12 (configuration not stated) = 1
Cc1c(C(N)=O)sc2c1c(=O)n(Cc1ccccc1)c1nnc(S(=O)(=O)CC(=O)Nc3ccc(Cl)cc3)n21 = 0
COc1cc(C2S/C(=C/c3ccccc3)C(=O)N2c2ccccc2Cl)cc(OC)c1OC (configuration not stated) = 1
COc1cc2c(cc1OCCCCCn1c3ccccc3c3ccccc31)N=C[C@@H]1CCCN1C2=O = 0
CC(Nc1n[nH]c(=O)c2c1nnn2Cc1ccccc1)c1ccccc1 (configuration not stated) = 1

(Q) Does O=C(Nc1ccc(S(=O)(=O)Nc2ncccn2)cc1)c1c2ccccc2nc2ccccc12 have a reported TGI of at least 30 µM?
(A) 1

(Q) Does CC(=O)NC(CO)C(=O)NC(Cc1ccc(O)cc1)C(=O)NCC(N)=O (stereo not drawn) (Ac-Ser-Tyr-Gly-NH2; configuration not given here) have a reported TGI of at least 30 µM?
(A) 1

(Q) Does O=C(NC1C=Nc2ccccc2NC1=O)c1ccccc1Cl (configuration not stated) have a reported TGI of at least 30 µM?
(A) 1

(Q) Does O=C1COCCN1c1ccc(NCc2cn(C(=O)c3ccc(Cl)cc3)c3ccccc23)cc1 have a reported TGI of at least 30 µM?
(A) 0

(Q) Does COc1nc(C)nc2c1ncn2Cc1ccccc1 have a reported TGI of at least 30 µM?
(A) 1

(Q) Does CC(=O)O/N=C/c1cc2c(cc1Br)OCO2 have a reported TGI of at least 30 µM?
(A) 1

----------
Here, each record is paired with measured TGI data.
System: MDA-MB-435
Experiment Description: NCI tumour cell line growth inhibition, 48 h
Express the result in µM but write the number alone.

Observe how each entry below is paired with its result.
Cc1ccc(-c2c3c(N)c4c(nc3nc3c2c(C)nn3-c2ccccc2)CCC4)cc1 = 34.2
CCOC(=O)Oc1ccc2c(c1)c(=O)c1c(NCCCN(CC)CC)ccc3nnn2c31 = 18.3

Next:
(Q) Form field - read-out: TGI; system: MDA-MB-435; submitted item: Cc1cc(C#N)c(Nc2ccccc2[N+](=O)[O-])s1
(A) 47.5

----------
Tested on: COLO 205 colon
Experiment Description: NCI tumour cell line growth inhibition, 48 h
Readout Type: GI50

CCCC(CCC)C(=O)OCC1(CO)C/C(=C\c2ccc(C(F)(F)F)cc2)C(=O)O1 (stereo not given) = 0.577 µM
Cc1cc(Cl)ccc1Nc1nc(C(F)(F)F)ccc1C(=O)Nc1cccc(C(F)(F)F)c1 = 2.52 µM
Cc1ccccc1NC(=O)c1cc2ccccc2cc1O = 13.8 µM
Oc1ccc(O)c2c1C1(Cl)C(Cl)=C(Cl)C2(Cl)C1(Cl)Cl = 11.6 µM
C=C1C(=O)O[C@H]2[C@H]1CC/C(CNC(=O)/C=C/c1ccc(Cl)cc1Cl)=C\CC[C@@]1(C)O[C@@H]21 = 1.14 µM

(Q) What does the data say about its GI50? Entry: COc1ccc2c(c1)C=C1CSCC3=Cc4cc(OC)ccc4OC13O2
(A) 0.292 µM

(Q) What does the data say about its GI50? Entry: O=C(CN1C(=O)S/C(=C\C(Cl)=C\c2ccccc2)C1=O)NCCCn1ccnc1
(A) 2.1 µM

(Q) What does the data say about its GI50? Entry: O=CN1N=C(c2ccc(Nc3ccnc4cc(Cl)ccc34)cc2)CC1c1ccc(Cl)cc1 (stereo not given)
(A) 2.4 µM

(Q) What does the data say about its GI50? Entry: O=C(Cn1c2ccccc2c2ccncc21)N/N=C\c1ccc2ccccc2c1
(A) 25.8 µM

(Q) What does the data say about its GI50? Entry: Cn1ncnc1C1c2n[nH]c(=O)c3cc(F)cc(c23)NC1c1ccc(F)cc1 (stereo not given)
(A) > 100 µM

----------
Tested on: SF-295 CNS
Experiment Description: NCI tumour cell line growth inhibition, 48 h
Readout Type: TGI

COC(=O)Nc1nc2ccc(S(=O)(=O)c3ccc(NC(=O)Nc4cc(C(F)(F)F)ccc4F)cc3)cc2[nH]1 = > 25 µM
CCCCCCC(=O)OC[n+]1cccc(-c2c(COC(=O)NC(C)C)c(COC(=O)NC(C)C)c3n2CCC3)c1 = > 100 µM
CCOC(=O)/C=C1\Oc2ccccc2C1(C)O (stereo unspecified) = > 100 µM
BrC1=CN2C[n+]3cc(Br)c4ccccc4c3N=C2c2ccccc21 = 21.5 µM
c1ccc(CSC(SCc2ccccc2)c2ccc3c(c2)OCO3)cc1 = > 10 µM

(Q) What does the data say about its TGI? Entry: Cc1cn(Cc2ccccc2CCl)c(=O)n(Cc2ccccc2CCl)c1=O
(A) 16.7 µM

(Q) What does the data say about its TGI? Entry: CCCCCCCCCCCCCCCCCc1nnc(N)o1
(A) > 100 µM

(Q) What does the data say about its TGI? Entry: CC(=O)Oc1cc(S(=O)(=O)Nc2n[nH]c(N)n2)c(S)cc1Cl
(A) > 100 µM

(Q) What does the data say about its TGI? Entry: COc1cc2c(cc1OCCCCCn1c3ccccc3c3ccccc31)N=C[C@@H]1CCCN1C2=O
(A) 6.55 µM

(Q) What does the data say about its TGI? Entry: NCCC1([N+](=O)[O-])CCNCC1
(A) > 100 µM

(Q) What does the data say about its TGI? Entry: O=S(=O)(N/N=C/c1ccc(Cl)cc1Cl)c1ccccc1
(A) > 100 µM

(Q) What does the data say about its TGI? Entry: Oc1ccccc1-n1nc2ccc3nonc3c2n1
(A) > 100 µM

(Q) What does the data say about its TGI? Entry: O=C1NC(SCc2ccc(F)cc2)=N/C1=C/c1cccc(OCc2ccc(Cl)cc2)c1
(A) > 100 µM

(Q) What does the data say about its TGI? Entry: O=c1c(Sc2ncccn2)c(Sc2ncccn2)cnn1CCl
(A) 30 µM

(Q) What does the data say about its TGI? Entry: COc1cc(/C=C\c2ccc(Cl)cc2)cc(OC)c1OC
(A) 0.218 µM

(Q) What does the data say about its TGI? Entry: Clc1ccc(/C=C/c2nc(Cl)c(-c3ccc(Cl)cc3)c(Cl)n2)cc1
(A) > 100 µM

(Q) What does the data say about its TGI? Entry: CN(C)c1ncnc2c1ccn2C1OC(CO)C(O)C1O (stereo unspecified)
(A) > 100 µM

(Q) What does the data say about its TGI? Entry: Cc1cn2c(/C=C3/C(=O)Nc4ccccc43)c(C)nc2s1
(A) > 100 µM

(Q) What does the data say about its TGI? Entry: OC1c2ccccc2C2C(O)c3ccccc3C12 (stereo unspecified)
(A) > 100 µM

(Q) What does the data say about its TGI? Entry: COC(=O)c1nc(N)nc(C(=O)OC)c1C(=O)c1ccccc1
(A) > 100 µM

----------
Tested on: NCI-H23 lung
Experiment Description: NCI tumour cell line growth inhibition, 48 h
Readout Type: GI50

Observe how each entry below is paired with its result.
CN(C)c1ncnc2c1ccn2C1OC(CO)C(O)C1O (stereo not given) = 5.45 µM
Cc1cn(Cc2ccccc2CCl)c(=O)n(Cc2ccccc2CCl)c1=O = 2.19 µM
Cc1ccc(-c2c3c(N)c4c(nc3nc3c2c(C)nn3-c2ccccc2)CCC4)cc1 = 17.5 µM
Cc1ccc(S(=O)(=O)Nc2cc(Sc3ccccc3)c(O)c3ccccc23)cc1 = 4.44 µM

(Q) What does the data say about its GI50? Entry: O=C(NN1C(=O)CSC12CCC(c1ccccc1)CC2)c1[nH]c2ccc(F)cc2c1-c1ccccc1 (stereo not given)
(A) 17.4 µM
